Hey, just so you know, these numbers are from ChEMBL document CHEMBL4513216.

test: Toxicity liver stage against HepG2, at 10uM; type: cell-based; design: test concentration 10 uM, cell line HepG2-A16-CD81EGFP; settings: human, HepG2-A16-CD81EGFP cells; read-out: INHIBITION
Here, each record is paired with measured cytotoxicity at 10 µM data.
assay metric: cytotoxicity at 10 µM (%)

> print(dat)
                                    compound  result.units  measured.result
 1  O=C(C1CCN(c2nc3nc[nH]c(=O)c3s2)CC1)N1CCCCC1             %            -5.55
 2   O=S1(=O)N(c2ccccc2)C[C@H](O)[C@]12CCNC2             %            0.827
 3  Cc1cn2c(n1)CCC(NC(=O)CCCn1cncn1)C2 (centres undefined)             %            -9.12
 4  CCC(CNC(=O)CNC(C)=O)Oc1cccc(F)c1 (centres undefined)             %            -43.6
 5       CC(C)N1Cc2c(C(=O)N3CCOCC3)nn(C)c2C1             %           0.0756
 6  Cn1ncc2c(=O)[nH]c(CN3CCC(Cc4ccccc4)CC3)nc21             %            -2.28
 7   Cc1cccc(CNC(=O)CC2CCN(C(=O)C(C)C)CC2)n1             %             7.45
 8      COc1ccc(C(=O)NCc2cc(N3CCOCC3)ncn2)o1             %             4.39
 9  CCc1csc(C2CCCN(C(=O)c3ccc(OC)nc3)C2)n1 (centres undefined)             %             4.65
10  CC(=O)Nc1nc(C(=O)NCc2ccc(N3CCCCC3)cc2)cs1             %            -2.75
11  CC(Cn1ccnc1)NC(=O)N1CCN(Cc2ccco2)CC1 (centres undefined)             %            -2.07
12  CC(C)C(=O)N1CCCC1c1nc(N(C)C)ncc1-c1ccc(Cl)cc1 (centres undefined)             %             20.1
13  Cc1[nH]ncc1C(=O)N(CC(C)C)CC(O)c1ccc(F)cc1 (centres undefined)             %            -1.61
14  O=C(NCC(CO)Cc1ccc(Cl)cc1)c1ccncc1Cl (centres undefined)             %             5.21
15  Cc1ncc(CNC(=O)CCc2cccc(F)c2)c(C2CCCN2C)n1 (centres undefined)             %            -6.82
16  Cc1nc(CNC(C)c2cccc(S(=O)(=O)N(C)C)c2)no1 (centres undefined)             %            0.956
17  CNc1cnc(CC2COCCN(CCOc3ccccc3)C2)cn1 (centres undefined)             %           -0.257
18  CCS(=O)(=O)N1CCC2(CCN(Cc3cccc(OC)c3)CC2)CC1             %              2.5
19  CN(Cc1cc(C(C)(C)C)n[nH]1)Cc1c[nH]nc1-c1ccc(F)cc1             %            -4.83
20       O=C(NCCSCc1ccco1)c1ccc(N2CCOCC2)cc1             %           -0.971
21           CC(C)N1CC(c2ccnc(Nc3nccs3)n2)C1             %             1.18
22        CCCc1nc(NC2(COC)CCCC2)c2cnn(C)c2n1             %            -1.43
23  COc1cc(C)ccc1OCCC(=O)N1CCCC1Cn1cccn1 (centres undefined)             %            -7.81
24       CC(C)NC(=O)c1nnc2ccc(N3CCOCC3)cc2n1             %             1.86
